koff for assorted binders
biological target: T1, monovalent hVISTA-ECD (human VISTA extracellular domain with His tail) (human, UniProt Q9H7M9 33-193); experiment: SPR, pH 7.4
T1 construct: analyte flowed over captured antibody; also called huVISTA-His
T1 sequence (Q9H7M9 other isoform, or with tags, fused parts or gaps limits assumed): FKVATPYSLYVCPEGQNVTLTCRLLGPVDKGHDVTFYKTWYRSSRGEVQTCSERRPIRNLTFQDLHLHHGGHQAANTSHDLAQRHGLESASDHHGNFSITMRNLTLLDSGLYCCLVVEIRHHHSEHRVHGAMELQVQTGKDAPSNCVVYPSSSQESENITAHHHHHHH
Write the number in s⁻¹ without appending the unit.

Example entries and their recorded answers appear below.
P1-065329 (41F11_VH_D31E/S35Y/Y50W/S55E/A60H/Y100E/F100aG VK_A64G) (antibody, V domains shown, Kabat positions; also called P1-065329-1) VH: QVQLVESGGGLVKPGGSLRLSCAASGFTFSEYYMYWIRQAPGKGLEWVSWISNSGEPIYYHDSVKGRFTISRDNAKNSLYLQMNSLRAEDTAVYYCARDLPGWEGDLWGRGTLVTVSS VL: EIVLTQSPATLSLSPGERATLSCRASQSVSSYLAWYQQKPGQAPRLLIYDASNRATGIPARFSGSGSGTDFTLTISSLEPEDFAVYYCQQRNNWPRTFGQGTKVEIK = 0.000858
P1-065326 (41F11_VH_D31E/Y50W/S55E/L96E/Y100E VK_A64G) (antibody, V domains shown, Kabat positions; also called P1-065326-1) VH: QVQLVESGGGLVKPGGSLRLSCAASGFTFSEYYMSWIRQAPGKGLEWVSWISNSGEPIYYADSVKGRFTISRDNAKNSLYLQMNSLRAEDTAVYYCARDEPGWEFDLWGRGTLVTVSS VL: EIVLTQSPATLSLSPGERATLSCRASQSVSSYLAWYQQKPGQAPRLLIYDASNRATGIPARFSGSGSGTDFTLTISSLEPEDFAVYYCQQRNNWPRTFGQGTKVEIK = 0.000285

Task: Given the entry P1-064500 (41F11_Vk_Q90DA64G) (antibody, V domains shown, also called P1-064500-1) VH: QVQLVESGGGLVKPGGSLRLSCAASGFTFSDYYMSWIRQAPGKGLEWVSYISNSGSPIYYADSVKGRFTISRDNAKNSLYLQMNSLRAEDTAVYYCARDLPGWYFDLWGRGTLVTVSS VL: EIVLTQSPATLSLSPGERATLSCRASQSVSSYLAWYQQKPGQAPRLLIYDASNRATGIPARFSGSGSGTDFTLTISSLEPEDFAVYYCQDRNNWPRTFGQGTKVEIK , report its measured koff.
Result: 0.0145

Task: Given the entry P1-064540 (41F11_VH_T28P/Y50W/S55E/A60H/Y100E) (antibody, V domains shown, Kabat positions; also called P1-064540-1) VH: QVQLVESGGGLVKPGGSLRLSCAASGFPFSDYYMSWIRQAPGKGLEWVSWISNSGEPIYYHDSVKGRFTISRDNAKNSLYLQMNSLRAEDTAVYYCARDLPGWEFDLWGRGTLVTVSS VL: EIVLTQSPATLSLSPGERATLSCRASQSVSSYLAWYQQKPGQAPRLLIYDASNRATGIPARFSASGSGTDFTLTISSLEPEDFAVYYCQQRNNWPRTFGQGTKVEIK , report its measured koff.
Result: 0.000158

Task: Given the entry P1-065319 (41F11_VH_F100aG VK_A64G) (antibody, V domains shown, Kabat positions; also called P1-065319-1) VH: QVQLVESGGGLVKPGGSLRLSCAASGFTFSDYYMSWIRQAPGKGLEWVSYISNSGSPIYYADSVKGRFTISRDNAKNSLYLQMNSLRAEDTAVYYCARDLPGWYGDLWGRGTLVTVSS VL: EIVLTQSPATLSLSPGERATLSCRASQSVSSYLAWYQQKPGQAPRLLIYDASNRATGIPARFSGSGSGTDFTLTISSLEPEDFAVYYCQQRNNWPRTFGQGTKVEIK , report its measured koff.
Result: 0.00514

Task: Given the entry P1-065312 (41F11_VH_F27E VK_A64G) (antibody, V domains shown, Kabat positions; also called P1-065312-1) VH: QVQLVESGGGLVKPGGSLRLSCAASGETFSDYYMSWIRQAPGKGLEWVSYISNSGSPIYYADSVKGRFTISRDNAKNSLYLQMNSLRAEDTAVYYCARDLPGWYFDLWGRGTLVTVSS VL: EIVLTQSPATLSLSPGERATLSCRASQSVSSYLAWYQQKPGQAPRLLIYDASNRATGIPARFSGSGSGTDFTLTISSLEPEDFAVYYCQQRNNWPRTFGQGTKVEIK , report its measured koff.
Result: 0.00131

Task: Given the entry P1-064510 (41F11_Vk_A25E/V29D/A64G/R91T) (antibody, V domains shown, also called P1-064510-1) VH: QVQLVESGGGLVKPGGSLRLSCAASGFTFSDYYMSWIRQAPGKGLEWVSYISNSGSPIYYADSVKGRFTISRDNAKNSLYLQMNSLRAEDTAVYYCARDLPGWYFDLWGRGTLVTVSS VL: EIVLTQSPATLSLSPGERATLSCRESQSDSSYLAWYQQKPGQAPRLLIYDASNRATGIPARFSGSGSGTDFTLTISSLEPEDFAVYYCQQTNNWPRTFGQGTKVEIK , report its measured koff.
Result: 0.000527

Task: Given the entry P1-065316 (41F11_VH_A60H VK A64G) (antibody, V domains shown, Kabat positions; also called P1-065316-1) VH: QVQLVESGGGLVKPGGSLRLSCAASGFTFSDYYMSWIRQAPGKGLEWVSYISNSGSPIYYHDSVKGRFTISRDNAKNSLYLQMNSLRAEDTAVYYCARDLPGWYFDLWGRGTLVTVSS VL: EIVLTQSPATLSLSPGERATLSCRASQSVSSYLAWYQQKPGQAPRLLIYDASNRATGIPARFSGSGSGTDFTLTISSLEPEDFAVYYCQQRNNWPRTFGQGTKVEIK , report its measured koff.
Result: 0.000995

Task: Given the entry P1-064526 (41F11_VH_D31E/Y50W/S55E/A60H/Y100E) (antibody, V domains shown, Kabat positions; also called P1-064526-1) VH: QVQLVESGGGLVKPGGSLRLSCAASGFTFSEYYMSWIRQAPGKGLEWVSWISNSGEPIYYHDSVKGRFTISRDNAKNSLYLQMNSLRAEDTAVYYCARDLPGWEFDLWGRGTLVTVSS VL: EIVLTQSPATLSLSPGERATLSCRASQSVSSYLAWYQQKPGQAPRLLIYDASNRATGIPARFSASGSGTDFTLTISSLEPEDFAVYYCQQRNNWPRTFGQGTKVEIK , report its measured koff.
Result: 0.000109

Task: Given the entry P1-065325 (41F11_VH_D31E/Y50W/S55E/A60H/Y100E VK_A64G) (antibody, V domains shown, Kabat positions; also called P1-065325-1) VH: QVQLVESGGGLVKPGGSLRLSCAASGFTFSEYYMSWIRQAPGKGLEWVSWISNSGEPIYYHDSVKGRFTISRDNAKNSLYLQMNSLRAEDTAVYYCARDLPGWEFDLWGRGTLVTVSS VL: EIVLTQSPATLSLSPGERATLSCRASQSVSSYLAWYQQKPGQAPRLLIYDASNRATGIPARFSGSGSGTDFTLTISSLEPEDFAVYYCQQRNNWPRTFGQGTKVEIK , report its measured koff.
Result: 0.000158
